meta.source: patent US12134663B2

Measured Lck Activity above control (1 µM) | Lck, listed per entry for reference.
system-under-test: Lck (Homo sapiens)
Construct: purchased Eurofins Pharma Discovery Services UK Limited
test-protocol: Lck Activity above control (1 µM) | Lck
Where no end group is shown, it is not given here.

# substance, Lck Activity above control (1 µM) | Lck (%)
data = [
    ("RRRRRRRRRR [IK00100]", 389),
    ("RRRRRRRR [IK00800]", 126),
    ("HHHHHHHHHH [10His]", 0),
    ("RVKVKVVVV-RRRRRRRRR (RVKVKVVVVRRRRRRRRR) [IK15800]", 593),
    ("RSKAKNPLY-RRRRRRRRR-NH2 (RSKAKNPLYRRRRRRRRR-NH2) [IK14800]", 578),
]

* * *

system-under-test: Lck (Homo sapiens, UniProt P06239)
Construct: purchased Eurofins Pharma Discovery Services UK Limited
test-protocol: Lck Activity above control (1 µM)
measurement-label: Lck Activity above control (1 µM) (%)

# substance, measurement-label, uom, numeric-result
measured = [
    ("RSKAKNPLYR (SEQ ID NO: 31, IK14000)", "Lck Activity above control (1 µM)", "%", 0),
    ("RSKAKNPLY (SEQ ID NO: 30, IK94000)", "Lck Activity above control (1 µM)", "%", 0),
    ("RSKAK-RRRR (SEQ ID NO: 29, IK50400) (RSKAKRRRR)", "Lck Activity above control (1 µM)", "%", 0),
    ("RSKAK-RRR (SEQ ID NO: 28, IK50300) (RSKAKRRR)", "Lck Activity above control (1 µM)", "%", 0),
    ("RSKAKNPLY-RRRRRRRRR-GPLG (SEQ ID NO: 41, IK148MP9) (RSKAKNPLYRRRRRRRRRGPLG)", "Lck Activity above control (1 µM)", "%", 320),
    ("RSKAK-R (SEQ ID NO: 26, IK50100) (RSKAKR)", "Lck Activity above control (1 µM)", "%", 0),
    ("IAGQ-RSKAKNPLY-RRRRRRRRR (SEQ ID NO: 40, IKM14800) (IAGQRSKAKNPLYRRRRRRRRR)", "Lck Activity above control (1 µM)", "%", 454),
    ("RSKAKNPLY-RRRR (SEQ ID NO: 32, IK14300) (RSKAKNPLYRRRR)", "Lck Activity above control (1 µM)", "%", 0),
    ("RSKAKNPLY-KKKKKKKKK (SEQ ID NO: 44, IK94K90)", "Lck Activity above control (1 µM)", "%", 49),
]
